Please provide measured MIC for the entries that follow.
# System: Mycobacterium tuberculosis
# assay.remarks: Antimycobacterial activity against Mycobacterium tuberculosis H37Rv
# Assay type: functional
One number for each entry, in µM.

mol.smiles | MIC / µM
CO[C@@H]1[C@@H](OC)[C@H](C)O[C@@H](OC(=O)C[C@@H](C)CC(=O)O[C@@H](CCCCCCCCCCC(C)C)CC(=O)O[C@H]2CN(C)[C@@H]([C@H](O[C@@H]3O[C@H](CN)[C@@H](O)[C@H]3O)[C@H]3O[C@@H](n4ccc(=O)[nH]c4=O)[C@H](O)[C@@H]3O)C(=O)N(C)[C@@H]2C(=O)O)[C@@H]1OC | 2.73
CCCCCCc1ccc(NC(=O)C2=CCN(C)[C@@H]([C@H](O[C@@H]3O[C@H](CN)[C@@H](O)[C@H]3O)[C@H]3O[C@@H](n4ccc(=O)[nH]c4=O)[C@H](O)[C@@H]3O)C(=O)N2C)cc1 | 1.09
CCCCCCCCCCCCCCCCCCCCCNC(=O)C1=CCN(C)[C@@H]([C@H](O[C@@H]2O[C@H](CN)[C@@H](O)[C@H]2O)[C@H]2O[C@@H](n3ccc(=O)[nH]c3=O)[C@H](O)[C@@H]2O)C(=O)N1C | 0.98
CCCCOc1ccc(N)cc1 | 2.27
CCCCCCCCCCNC(=O)C1=CCN(C)[C@@H]([C@H](O[C@@H]2O[C@H](CN)[C@@H](O)[C@H]2O)[C@H]2O[C@@H](n3ccc(=O)[nH]c3=O)[C@H](O)[C@@H]2O)C(=O)N1C | 0.98
CCCCCCCCCCCCNC(=O)C1=CCN(C)[C@@H]([C@H](O[C@@H]2O[C@H](CN)[C@@H](O)[C@H]2O)[C@H]2O[C@@H](n3ccc(=O)[nH]c3=O)[C@H](O)[C@@H]2O)C(=O)N1C | 0.98

Batch request: MIC per item, same order as input.
1. CCc1ccc(NC(=O)C2=CCN(C)[C@@H]([C@H](O[C@@H]3O[C@H](CN)[C@@H](O)[C@H]3O)[C@H]3O[C@@H](n4ccc(=O)[nH]c4=O)[C@H](O)[C@@H]3O)C(=O)N2C)cc1
2. CCCCCNC(=O)C1=CCN(C)[C@@H]([C@H](O[C@@H]2O[C@H](CN)[C@@H](O)[C@H]2O)[C@H]2O[C@@H](n3ccc(=O)[nH]c3=O)[C@H](O)[C@@H]2O)C(=O)N1C
3. CCCCCCCCNC(=O)C1=CCN(C)[C@@H]([C@H](O[C@@H]2O[C@H](CN)[C@@H](O)[C@H]2O)[C@H]2O[C@@H](n3ccc(=O)[nH]c3=O)[C@H](O)[C@@H]2O)C(=O)N1C
4. CC/C=C\CCCCCCCCCCOC(=O)C1=CCN(C)[C@@H]([C@H](O[C@@H]2O[C@H](CN)[C@@H](O)[C@H]2O)[C@H]2O[C@@H](n3ccc(=O)[nH]c3=O)[C@H](O)[C@@H]2O)C(=O)N1C

### Response
[1.09, 0.98, 0.98, 16.6]
